experimental_protocol: Aqueous solubility of the compound at pH 6.5
reported_conditions: buffer
measured_parameter: solubility (µg/mL)
Please give a number only; it is taken to be in µg/mL.

Let me know recorded solubility for COc1ccc2c(c1)[C@@H]1C[C@]1(C(=O)N1[C@@H]3CC[C@H]1CN(C)C3)Cn1c-2c(C2CCCCC2)c2ccc(C(=O)NS(=O)(=O)N(C)C)cc21 , thanks.
20

###

experimental_protocol: Permeability of the compound at pH 7.4 by PAMPA
Type: physicochemical
reported_conditions: read-out: permeability
The reader will find reported Papp values listed item by item below.
A number alone suffices; assume ×10⁻⁶ cm/s.

| molecule | measured_parameter | readout_value |
| --- | --- | --- |
| COc1ccc2c(c1)[C@@H]1C[C@]1(C(=O)N1C3CC1CN(C)C3)Cn1c-2c(C2CCCCC2)c2ccc(C(=O)NS(=O)(=O)N(C)C)cc21 | Papp | 43 |
| COc1ccc2c(c1)C1CC1(C(=O)N1C[C@@H](C)N(C)[C@@H](C)C1)Cn1c-2c(C2CCCCC2)c2ccc(C(=O)NS(=O)(=O)N(C)C)cc21 (mixture of isomers) | Papp | 48 |
| COc1ccc2c(c1)C1CC1(C(=O)N1CC(O)(c3ccccc3)C1)Cn1c-2c(C2CCCCC2)c2ccc(C(=O)NS(=O)(=O)N(C)C)cc21 (racemic) | Papp | 39 |
| COc1ccc2c(c1)C1CC1(C(=O)N1C[C@@H](C)N[C@@H](C)C1)Cn1c-2c(C2CCCCC2)c2ccc(C(=O)NS(=O)(=O)N(C)C)cc21 (mixture of isomers) | Papp | 14 |
| COc1ccc2c(c1)C1CC1(C(=O)N1CCN(C(=O)N(C)C)CC1)Cn1c-2c(C2CCCCC2)c2ccc(C(=O)NS(=O)(=O)N(C)C)cc21 (racemic) | Papp | 43 |

Specify Papp for COc1ccc2c(c1)C1CC1(C(=O)N1C3CNCC1C3)Cn1c-2c(C2CCCCC2)c2ccc(C(=O)NS(=O)(=O)N(C)C)cc21 (racemic) and stop.
6

Answer with reported Papp of CCN1CC2CC(C1)N2C(=O)[C@]12C[C@H]1c1cc(OC)ccc1-c1c(C3CCCCC3)c3ccc(C(=O)NS(=O)(=O)N(C)C)cc3n1C2
27

Return Papp (reported value) for this molecule: COc1ccc2c(c1)[C@@H]1C[C@]1(C(=O)N1[C@@H]3CC[C@H]1CN(C)C3)Cn1c-2c(C2CCCCC2)c2ccc(C(=O)NS(=O)(=O)N(C)C)cc21
64
